The measured values listed here are drawn from paper PMC8512853.

molecular target: human serum albumin (HSA) (Homo sapiens, UniProt P02768); construct: purchased CHIRAL PAK; experiment: HSA chromatography and estimated plasma protein binding; assay type: in vitro ADME; settings: pH 7.00, 10% acetonitrile
Sequence (P02768 25-609): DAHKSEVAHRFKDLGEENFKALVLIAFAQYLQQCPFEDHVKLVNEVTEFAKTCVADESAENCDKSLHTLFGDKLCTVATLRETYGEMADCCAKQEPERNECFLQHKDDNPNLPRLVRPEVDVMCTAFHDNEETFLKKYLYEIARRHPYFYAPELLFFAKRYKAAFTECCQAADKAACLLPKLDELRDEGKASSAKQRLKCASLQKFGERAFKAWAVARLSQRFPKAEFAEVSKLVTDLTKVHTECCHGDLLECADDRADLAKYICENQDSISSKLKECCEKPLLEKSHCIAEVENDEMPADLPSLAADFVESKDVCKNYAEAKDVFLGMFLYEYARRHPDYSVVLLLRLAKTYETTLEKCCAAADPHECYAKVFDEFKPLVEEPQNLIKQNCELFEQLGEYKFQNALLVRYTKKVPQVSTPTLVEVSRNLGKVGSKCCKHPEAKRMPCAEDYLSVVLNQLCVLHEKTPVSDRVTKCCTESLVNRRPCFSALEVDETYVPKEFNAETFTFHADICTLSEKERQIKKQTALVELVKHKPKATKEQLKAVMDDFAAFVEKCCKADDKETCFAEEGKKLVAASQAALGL
Would you kindly list logk10 (HSA retention factor) for each of these compounds?
Reply briefly: the number, and no unit.

Name the recorded logk10 (HSA retention factor) of the item `Cc1c(-c2ccc(O)cc2)c(=O)oc2ccc(Cl)cc12` in your answer.
0.59

Name the recorded logk10 (HSA retention factor) of the item `CC(=O)Oc1ccc(-c2c(C)c3cc(Cl)ccc3oc2=O)cc1` in your answer.
0.97

Name the recorded logk10 (HSA retention factor) of the item `CC(=O)Oc1cccc2oc(=O)c(-c3ccc(F)cc3)c(C)c12` in your answer.
0.57

Name the recorded logk10 (HSA retention factor) of the item `CC(=O)Oc1cccc2oc(=O)c(-c3cccc(F)c3)c(C)c12` in your answer.
0.73

Name the recorded logk10 (HSA retention factor) of the item `CC(=O)Oc1cccc2oc(=O)c(-c3ccc(Cl)cc3)c(C)c12` in your answer.
0.96

Name the recorded logk10 (HSA retention factor) of the item `Cc1c(-c2ccccc2Cl)c(=O)oc2cccc(O)c12` in your answer.
0.79

Name the recorded logk10 (HSA retention factor) of the item `Cc1c(-c2ccccc2F)c(=O)oc2cccc(O)c12` in your answer.
0.72

Name the recorded logk10 (HSA retention factor) of the item `Cc1c(-c2cccc(F)c2)c(=O)oc2cccc(O)c12` in your answer.
1.34

Name the recorded logk10 (HSA retention factor) of the item `CC(=O)Oc1ccc(-c2c(C)c3cc(Br)cc(Br)c3oc2=O)cc1OC(C)=O` in your answer.
0.58
